Exercise: state measured pIC50 for each of the molecules provided.
Scale explanation: pIC50 corresponds to minus log10 of a concentration expressed in moles per litre.

API: value(readout=pIC50, system=Interstitial collagenase (Homo sapiens, UniProt P03956)) for record O=C(OCCc1ccccc1)c1cccc(=S)[nH]1
3.92

API: value(readout=pIC50, system=Interstitial collagenase (Homo sapiens, UniProt P03956)) for record O=C(OCc1cccc(F)c1)c1cccc(=O)[nH]1
4.55

API: value(readout=pIC50, system=Interstitial collagenase (Homo sapiens, UniProt P03956)) for record O=C(OCc1cc(F)ccc1F)c1cccc(=O)[nH]1
4.15

API: value(readout=pIC50, system=Interstitial collagenase (Homo sapiens, UniProt P03956)) for record O=C(OCc1ccccc1F)c1cccc(=O)[nH]1
4.19

API: value(readout=pIC50, system=Interstitial collagenase (Homo sapiens, UniProt P03956)) for record O=C(OCCc1ccccc1)c1cccc(=O)[nH]1
4.33

API: value(readout=pIC50, system=Interstitial collagenase (Homo sapiens, UniProt P03956)) for record O=C(OCc1cc(F)cc(F)c1)c1cccc(=O)[nH]1
4.39

API: value(readout=pIC50, system=Interstitial collagenase (Homo sapiens, UniProt P03956)) for record O=C(OCc1cccc(Br)c1)c1cccc(=O)[nH]1
4.66

API: value(readout=pIC50, system=Interstitial collagenase (Homo sapiens, UniProt P03956)) for record O=C(OCc1ccccc1)c1cccc(S)n1
4.00

API: value(readout=pIC50, system=Interstitial collagenase (Homo sapiens, UniProt P03956)) for record O=C(Oc1ccc2ccccc2c1)c1cccc(=O)[nH]1
4.12

API: value(readout=pIC50, system=Interstitial collagenase (Homo sapiens, UniProt P03956)) for record COc1ccc(COC(=O)c2cccc(=O)[nH]2)cc1
4.00

API: value(readout=pIC50, system=Interstitial collagenase (Homo sapiens, UniProt P03956)) for record O=C(OC1CCC1)c1cccc(=O)[nH]1
4.60

API: value(readout=pIC50, system=Interstitial collagenase (Homo sapiens, UniProt P03956)) for record O=C(OC1CCCCC1)c1cccc(=O)[nH]1
4.49

API: value(readout=pIC50, system=Interstitial collagenase (Homo sapiens, UniProt P03956)) for record O=C(OCc1ccc2c(c1)OCO2)c1cccc(=O)[nH]1
3.89

API: value(readout=pIC50, system=Interstitial collagenase (Homo sapiens, UniProt P03956)) for record O=C(OCc1cccc(F)c1)c1cccc(S)n1
3.92

API: value(readout=pIC50, system=Interstitial collagenase (Homo sapiens, UniProt P03956)) for record O=C(OCc1cc(F)c(F)cc1F)c1cccc(=O)[nH]1
4.52

API: value(readout=pIC50, system=Interstitial collagenase (Homo sapiens, UniProt P03956)) for record Cc1ccc(COC(=O)c2cccc(=O)[nH]2)cc1
4.19

API: value(readout=pIC50, system=Interstitial collagenase (Homo sapiens, UniProt P03956)) for record O=C(OCc1cccc(Oc2ccccc2)c1)c1cccc(S)n1
4.11

API: value(readout=pIC50, system=Interstitial collagenase (Homo sapiens, UniProt P03956)) for record COc1cccc(COC(=O)c2cccc(=O)[nH]2)c1
4.16

API: value(readout=pIC50, system=Interstitial collagenase (Homo sapiens, UniProt P03956)) for record O=C(OCc1ccccc1Cl)c1cccc(=O)[nH]1
4.29

API: value(readout=pIC50, system=Interstitial collagenase (Homo sapiens, UniProt P03956)) for record O=C(OCc1ccc(Oc2ccccc2)cc1)c1cccc(S)n1
3.94

API: value(readout=pIC50, system=Interstitial collagenase (Homo sapiens, UniProt P03956)) for record O=C(OCc1ccc(Cl)cc1)c1cccc(=O)[nH]1
4.59

API: value(readout=pIC50, system=Interstitial collagenase (Homo sapiens, UniProt P03956)) for record O=C(OCCCc1ccccc1)c1cccc(=S)[nH]1
4.02

API: value(readout=pIC50, system=Interstitial collagenase (Homo sapiens, UniProt P03956)) for record O=C(Oc1ccc2ccccc2c1)c1cccc(S)n1
4.00

API: value(readout=pIC50, system=Interstitial collagenase (Homo sapiens, UniProt P03956)) for record O=C(OCc1ccc(Cl)cc1)c1cccc(S)n1
3.90

API: value(readout=pIC50, system=Interstitial collagenase (Homo sapiens, UniProt P03956)) for record O=C(OCc1ccc(F)cc1)c1cccc(=O)[nH]1
4.64
